- Tested on: Escherichia coli TOP10;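 also: peptides expressed intracellularly from a pBAD plasmid library in pooled LB shake-flask culture, induced with 0.3% L-arabinose, DNA abundance read by NGS, three biological replicates, DESeq2 with apeglm shrinkage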
- Assay Summary: shrunken log2 fold change of peptide-encoding DNA abundance (4.5 h post-induction vs induction); higher = less antimicrobial activity (less host growth inhibition)
- Test Conditions: time post-induction: 4.5 h; library: site-saturation at positions 5, 18, 19, 20

[
  {
    "Sequence Code": "RRIRFRPPRLPRPRPRPLSDPRP",
    "Tested Target": "Escherichia coli TOP10",
    "shrunken log2 fold change": 0.207
  },
  {
    "Sequence Code": "RRIRSRPPRLPRPRPRPQINPRP",
    "Tested Target": "Escherichia coli TOP10",
    "shrunken log2 fold change": -0.46
  },
  {
    "Sequence Code": "RRIRMRPPRLPRPRPRPQRWPRP",
    "Tested Target": "Escherichia coli TOP10",
    "shrunken log2 fold change": 0.637
  },
  {
    "Sequence Code": "RRIRRRPPRLPRPRPRPIATPRP",
    "Tested Target": "Escherichia coli TOP10",
    "shrunken log2 fold change": 0.0769
  },
  {
    "Sequence Code": "RRIRMRPPRLPRPRPRPSGYPRP",
    "Tested Target": "Escherichia coli TOP10",
    "shrunken log2 fold change": -0.0299
  },
  {
    "Sequence Code": "RRIRYRPPRLPRPRPRPSRHPRP",
    "Tested Target": "Escherichia coli TOP10",
    "shrunken log2 fold change": -0.649
  },
  {
    "Sequence Code": "RRIRFRPPRLPRPRPRPWHSPRP",
    "Tested Target": "Escherichia coli TOP10",
    "shrunken log2 fold change": -0.018
  },
  {
    "Sequence Code": "RRIRVRPPRLPRPRPRPKDFPRP",
    "Tested Target": "Escherichia coli TOP10",
    "shrunken log2 fold change": 0.123
  }
]

Reference for the values: the supplement of paper PMC9112550
